Target: Adenosine A2 receptor (Rattus norvegicus) (UniProt P29276+P30543)
Assay: Binding affinity for Adenosine A2 receptor using [3H]- NECA
Format: protein assay
quantity.name: pKi
Answers are plain numbers, as −log10 of the molar value.

Sample answers from the record:
molecule: OCCCNc1ncnc2c1ncn2C1O[C@H](CO)[C@@H](O)[C@H]1O (stereo partly drawn)
pKi: 5.31
--
molecule: OC[C@H]1O[C@@H](n2cnc3c(Nc4ccccc4)ncnc32)[C@H](O)[C@@H]1O
pKi: 6.18

// switching to the query molecule
Record CCCCCCCCCCCCCCCCCC(=O)NCCNC(=O)Cc1ccc(NC(=O)Cc2ccc(Nc3ncnc4c3ncn4C3O[C@H](CO)[C@@H](O)[C@H]3O)cc2)cc1 (stereo partly drawn) , field pKi: 5.08

* * *

Biological target: Adenosine receptor A1 (Rattus norvegicus, UniProt P25099)
Sequence (P25099 whole entry): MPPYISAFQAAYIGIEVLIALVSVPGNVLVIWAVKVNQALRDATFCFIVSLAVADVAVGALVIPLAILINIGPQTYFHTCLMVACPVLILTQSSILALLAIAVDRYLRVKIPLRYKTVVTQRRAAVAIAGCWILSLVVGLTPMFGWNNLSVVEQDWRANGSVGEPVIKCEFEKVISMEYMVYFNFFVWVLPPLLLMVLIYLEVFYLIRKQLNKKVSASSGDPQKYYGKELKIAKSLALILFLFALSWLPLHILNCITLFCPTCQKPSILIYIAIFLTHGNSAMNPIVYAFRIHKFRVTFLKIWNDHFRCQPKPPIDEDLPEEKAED
Returns: string. Value is T if measured Ki is below 200 nM, and F if it is greater than or equal to it.

// below: answered compounds
compound: Nc1nc(OCCC2CCCCC2)nc2c1ncn2C1O[C@@H](CO)[C@H](O)[C@@H]1O (stereo not given in full)
label.value: F
//
compound: FC(F)(F)c1nnc2c(NC3CCCC3)nc3ccc(Cl)cc3n12
label.value: T
//
compound: C#CCn1c(=O)c2c(ncn2C)n(C)c1=O
label.value: F
//
compound: CCNC(=O)[C@H]1O[C@@H](n2cnc3c(N)nc(NCCc4ccc(CCC(=O)NCCN)cc4)nc32)[C@H](O)[C@@H]1O
label.value: F
//
compound: Oc1cccc(C2=CSC3=Nc4ccccc4CN23)c1
label.value: F
//
compound: CCCCC#Cc1nc(N)c2ncn([C@@H]3O[C@H](CO)[C@@H](O)[C@H]3O)c2n1
label.value: T
//
compound: Cc1c(C)n([C@H](C)Cc2ccccc2)c2nc(-c3ccccc3)nc(N)c12
label.value: T
//
compound: CCNC(=O)[C@H]1OC(n2cnc3c(N)nc(NCCc4ccc(CCC(=O)NCC/N=C(\S)Nc5ccc(N=C=S)cc5)cc4)nc32)[C@H](O)[C@@H]1O (stereo not given in full)
label.value: F
//
compound: CCCCCCC#Cc1nc(N)c2ncn([C@@H]3O[C@H](CO)[C@@H](O)[C@H]3O)c2n1
label.value: F
//
compound: CCCn1c(=O)c2nc(C3CCCC3)[nH]c2n(CCc2ccc(N)c(I)c2)c1=O
label.value: T

Is Ki strictly under 200 nM for the entry Cc1ccc(CCOc2nc(N)c3ncn(C4O[C@@H](CO)[C@H](O)[C@@H]4O)c3n2)cc1 (stereo not given in full) ?
T

Ki strictly < 200 nM for this compound? Nc1nc2ccc(Cl)cc2n2c(-c3ccccc3)nnc12
F

Quick check: Ki of Nc1nc(NCCC2C=CCCC2)nc2c1ncn2C1O[C@H](CO)[C@@H](O)[C@H]1O (stereo not given in full) under 200 nM?
F

Given CCCn1c(=O)c2[nH]c(C3CCC(=O)C3)nc2n(CCC)c1=O (stereo not given) , is recorded Ki strictly lower than 200 nM?
T

Report whether reported Ki is lower than 200 nM (strictly) for Nc1nc(-c2ccccc2)nc2c1cnn2-c1ccccc1
T

* * *

Molecular target: Adenosine A2 receptor (Homo sapiens, UniProt P29275+P29274)
Assay: Binding affinity for adenosine A2 receptor using [125I]PAPA-APEC in bovine striatum
Format: tissue-based
Conditions: Bos taurus, target entry is the homologue from another species
quantity.name: Ki (nM)
Answers are plain numbers, in nM.

Documented Ki of CCNC(=O)[C@H]1OC(n2cnc3c(N)nc(NCCc4ccc(CCC(=O)NCC/N=C(\S)Nc5ccc(N=C=S)cc5)cc4)nc32)[C@H](O)[C@@H]1O (stereo partly specified) : 7.1

* * *

Biological target: Adenosine receptor A1 (Bos taurus, UniProt P28190)
Sequence (P28190 whole entry): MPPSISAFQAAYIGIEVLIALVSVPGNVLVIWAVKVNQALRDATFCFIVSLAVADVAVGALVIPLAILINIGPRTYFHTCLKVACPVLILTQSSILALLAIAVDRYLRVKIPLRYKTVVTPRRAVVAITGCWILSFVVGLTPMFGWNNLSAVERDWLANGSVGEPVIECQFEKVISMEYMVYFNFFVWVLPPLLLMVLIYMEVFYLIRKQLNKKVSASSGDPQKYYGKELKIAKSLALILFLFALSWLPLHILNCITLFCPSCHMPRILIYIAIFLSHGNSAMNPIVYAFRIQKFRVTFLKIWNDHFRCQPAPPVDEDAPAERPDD
Experiment: Binding affinity for adenosine A1 receptor using [3H]- CHA or [3H]- PIA in bovine brain cortical membranes
Type: cell membranes
quantity.name: Ki

The compound identified as CCCn1c(=O)c2nc(-c3ccc(OCC(=O)NCCNC(=O)CCc4ccc(N)c(I)c4)cc3)[nH]c2n(CCC)c1=O registered its Ki at 0.1 nM

* * *

Molecular target: Adenosine receptor A1 (Bos taurus, UniProt P28190)
Assay: Binding affinity for adenosine A1 receptor using [3H]- CHA or [3H]- PIA in bovine brain
quantity.name: Ki (nM)
Give bare numbers, in nM.

// Cn1cnc2c(NC3CC4CCC3C4)ncnc21 (stereo unspecified) : Ki value = 10

* * *

Task for the reader: assign each of the following compounds its reported Ki.
Target: Adenosine receptor A1 (Rattus norvegicus, UniProt P25099)
Assay: Binding affinity for Adenosine A1 receptor using [3H]- CHA or [3H]- PIA
Numbers only, in nM.

compound: O=C(Cc1ccc(NC(=O)Cc2ccc(Nc3ncnc4c3ncn4C3O[C@H](CO)[C@@H](O)[C@H]3O)cc2)cc1)NCC/N=C(/S)Nc1ccc2c(c1)C(=O)OC21c2ccc(O)cc2Oc2cc(O)ccc21 (some centres not stated)
system.under.test: Adenosine receptor A1 (Rattus norvegicus, UniProt P25099)
quantity.name: Ki
result: 7.1
//
compound: Nc1ccc(CNc2ncnc3c2ncn3C2O[C@H](CO)[C@@H](O)[C@H]2O)cc1I (some centres not stated)
system.under.test: Adenosine receptor A1 (Rattus norvegicus, UniProt P25099)
quantity.name: Ki
result: 0.7
//
compound: Nc1ccc(CCNc2ncnc3c2ncn3C2O[C@H](CO)[C@@H](O)[C@H]2O)cc1I (some centres not stated)
system.under.test: Adenosine receptor A1 (Rattus norvegicus, UniProt P25099)
quantity.name: Ki
result: 2
//
compound: OC[C@H]1O[C@@H](n2cnc3c(NCCc4ccccc4)ncnc32)[C@H](O)[C@@H]1O
system.under.test: Adenosine receptor A1 (Rattus norvegicus, UniProt P25099)
quantity.name: Ki
result: 4.1
//
compound: CCCCCCCCCCCCCCCCCC(=O)NCCNC(=O)Cc1ccc(NC(=O)Cc2ccc(Nc3ncnc4c3ncn4C3O[C@H](CO)[C@@H](O)[C@H]3O)cc2)cc1 (some centres not stated)
system.under.test: Adenosine receptor A1 (Rattus norvegicus, UniProt P25099)
quantity.name: Ki
result: 0.22
//
compound: OCCCNc1ncnc2c1ncn2C1O[C@H](CO)[C@@H](O)[C@H]1O (some centres not stated)
system.under.test: Adenosine receptor A1 (Rattus norvegicus, UniProt P25099)
quantity.name: Ki
result: 7

Consider the additional compound presented here.
Please fill in: Ki reported for C[C@H](Cc1ccc(O)c(I)c1)Nc1ncnc2c1ncn2[C@@H]1O[C@H](CO)[C@@H](O)[C@H]1O = 0.94

* * *

Target: Adenosine A2 receptor (Homo sapiens, UniProt P29275+P29274)
Assay: Binding affinity for adenosine A2 receptor using [3H]- NECA in bovine brain
Conditions: Bos taurus; target entry is the homologue from another species
quantity.name: Ki
Returns: string containing the numeric result and its unit.

Per the records, this compound ( Cn1cnc2c(NC3CC4CCC3C4)ncnc21 (stereo unspecified) ) has Ki equal to 6.1 µM

* * *

Biological target: Adenosine receptor A1 (Rattus norvegicus)
Assay: Binding affinity for adenosine A1 receptor using [3H]- CHA or [3H]- PIA antagonism of adenylate cyclase inhibition in rat adipocytes
Type: cell-based
quantity.name: Ki (nM)
Give bare numbers, in nM.

The compound CCCn1c(=O)c2nc([C@H]3CC[C@H](CNC(C)=O)CC3)[nH]c2n(CCC)c1=O showed Ki equal to 8
